These data points were gathered from ChEMBL document CHEMBL5365402.

test system: ONS; assay: Anti-parkinson's disease activity in human ONS cells assessed as early endosome marker intensity in outer region of cytoplasm at 5 uM by heat map analysis; format: functional, subcellular
Active and inactive are the calls of the source. The calls are words filed in the database; no cut-off is given here.
Write down one outcome, taken from active, inactive

>>> print(df.to_string())
                test_smiles  assigned_category
0  COc1cc(/C=C/C(=O)O)ccc1O             active
1    CCC(=O)c1ccc2c(c1)OCO2             active
2    O=C(O)/C=C/c1ccc(O)cc1           inactive

I would be grateful if you could indicate the recorded call for O=C(O)c1ccc(O)cc1 . active

// next record COc1cc([C@H]2OC[C@H]3[C@@H]2CO[C@H]3c2ccc3c(c2)OCO3)ccc1O inactive
